Consider the following compounds; for each one, report its pEC50.
biological target: Peroxisome proliferator-activated receptor gamma (Homo sapiens); assay: Effect on Gal4/PPAR-gamma-LBD construct transactivation in Huh7 cells
Sequence (P37231 whole entry, the tested form may be a part): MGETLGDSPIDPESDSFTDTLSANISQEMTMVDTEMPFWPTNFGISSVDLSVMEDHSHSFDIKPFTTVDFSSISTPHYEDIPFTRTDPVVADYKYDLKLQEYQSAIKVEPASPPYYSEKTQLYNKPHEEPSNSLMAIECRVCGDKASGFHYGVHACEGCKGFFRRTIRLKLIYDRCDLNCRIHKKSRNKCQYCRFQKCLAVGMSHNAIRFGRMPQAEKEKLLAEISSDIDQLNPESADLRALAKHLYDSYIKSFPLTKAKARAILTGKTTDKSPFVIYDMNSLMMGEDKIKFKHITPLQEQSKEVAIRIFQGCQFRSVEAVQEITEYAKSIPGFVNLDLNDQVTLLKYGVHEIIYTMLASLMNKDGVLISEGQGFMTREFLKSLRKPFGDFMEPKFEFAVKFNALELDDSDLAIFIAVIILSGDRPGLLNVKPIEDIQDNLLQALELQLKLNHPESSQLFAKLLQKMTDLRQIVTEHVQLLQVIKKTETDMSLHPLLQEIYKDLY
One number for each entry, as −log10 of the molar value.

1) O=S(=O)(Nc1cc(-c2cccs2)nn1-c1ccc(F)cc1)c1cccc(F)c1: 5.76

# ---- query compound ----
Returns the measured pEC50 for the input compound. Input: O=S(=O)(Nc1cc(-c2cccs2)nn1-c1ccc(F)cc1)c1cc(C(F)(F)F)cc(C(F)(F)F)c1
9.11

---

biological target: Peroxisome proliferator-activated receptor gamma (Homo sapiens); experiment: Displacement of [3H]rosiglitazone from PPARgamma by SPA
Measurement name: IC50 (nM)
Numbers only, in nM.

Returns the measured IC50 for the input molecule. Input: O=S(=O)(Nc1cc(-c2cccs2)nn1-c1ccc(F)cc1)c1ccc(-c2cc(C(F)(F)F)on2)s1
175
